assayTarget: PDE1B (Homo sapiens)
Sequence (Q01064 whole entry): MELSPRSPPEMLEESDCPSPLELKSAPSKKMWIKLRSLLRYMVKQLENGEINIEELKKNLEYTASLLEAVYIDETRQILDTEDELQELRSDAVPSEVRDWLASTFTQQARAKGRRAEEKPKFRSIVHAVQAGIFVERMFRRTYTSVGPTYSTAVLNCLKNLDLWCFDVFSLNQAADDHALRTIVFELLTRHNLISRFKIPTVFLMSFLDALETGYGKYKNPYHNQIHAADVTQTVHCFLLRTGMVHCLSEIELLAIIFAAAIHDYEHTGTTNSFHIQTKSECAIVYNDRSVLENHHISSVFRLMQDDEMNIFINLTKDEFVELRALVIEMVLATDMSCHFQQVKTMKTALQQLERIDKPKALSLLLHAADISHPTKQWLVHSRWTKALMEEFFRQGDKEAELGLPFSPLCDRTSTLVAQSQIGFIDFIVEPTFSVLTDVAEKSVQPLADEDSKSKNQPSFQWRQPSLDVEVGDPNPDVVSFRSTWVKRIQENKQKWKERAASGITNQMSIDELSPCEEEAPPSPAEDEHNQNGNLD
assayName: In vitro HTRF PDE1 inhibition assay (PDE1B)
Format: biochemical
conditionSet: in vitro PDE1B HTRF Assay; read-out: IC50
pIC50: −log10 of the molar value.
# pIC50 listing for each entry below

Below, each entry is followed by its recorded pIC50 result.
> print(dat)
                                   molecule  testreadout     measvalue
1  CCn1c(OCCC2CCC(F)(F)CC2)nn2c(C3CCOCC3)ncc2c1=O        pIC50        > 6.00
2     CC(C)c1ncc2c(=O)n(C)c(OCC(F)(F)F)nn12        pIC50        > 6.00
3          CC(C)COc1nn2c(C(C)C)ncc2c(=O)n1C        pIC50        > 6.00
4     CC(C)c1ncc2c(=O)n(C)c(OCc3ccccn3)nn12        pIC50        > 6.00
5  Cn1c(O[C@H]2CC[C@@H](C(F)(F)F)CC2)nn2c(C3CCOCC3)ncc2c1=O        pIC50        > 6.00
6  CCn1c(OCc2ccc(-c3ccc(OC)cc3)cc2)nn2c(C3CCOCC3)ncc2c1=O        pIC50        > 6.00
7  O=c1c2cnc(C3CCOCC3)n2nc(N2CCCC2)n1CC1CCC1        pIC50  4.00 to 5.00
8  Cn1c(OC[C@H]2CC[C@H](CO)CC2)nn2c(C3CCOCC3)ncc2c1=O        pIC50        > 6.00

Report measured pIC50; entry is "O=c1c2cnc(C3CCOCC3)n2nc(N2CCCC2)n1CC1CCOCC1"
4.00 to 5.00

Report pIC50, nothing else, for this molecule: "Cc1ccc(COc2nn3c(C4CCOCC4)ncc3c(=O)n2C)cc1"
> 6.00

Kindly indicate its recorded pIC50. Item: "COCC(=O)N1CCCN(c2nn3c(C4CCOCC4)ncc3c(=O)n2C)CC1"
5.00 to 6.00

Specify measured pIC50 for "COc1ccc(CCc2nn3c(C4CCOCC4)ncc3c(=O)n2C)cc1" .
> 6.00

Look up and report measured pIC50 for this entry: "CCO[C@H]1CC[C@@H](COc2nn3c(C4CCOCC4)ncc3c(=O)n2C)CC1"
> 6.00

Consider the molecule "CC(C)c1ncc2c(=O)n(C)c(N3CCC[C@@H]3c3ccc(Cl)cc3)nn12" . State its measured pIC50.
> 6.00

Please list pIC50 recorded for the molecule "CCn1c(COC2CCC(F)(F)CC2)nn2c(C3CCOCC3)ncc2c1=O"
> 6.00

Tell me its pIC50 given COC(C)c1ncc2c(=O)n(C)c(OCC3CCC(F)(F)CC3)nn12 (stereo not shown) as the entry.
> 6.00

Please supply the value of reported pIC50 for the item "Cn1c(OC[C@H]2CC[C@H](C(F)(F)F)CC2)nn2c(C3CCOCC3)ncc2c1=O"
> 6.00
